The following molecules are listed with their measured IC50 values.
test-system: TrkA kinase (Homo sapiens)
Construct: purchased Upstate, USA
Sequence (P04629 33-796): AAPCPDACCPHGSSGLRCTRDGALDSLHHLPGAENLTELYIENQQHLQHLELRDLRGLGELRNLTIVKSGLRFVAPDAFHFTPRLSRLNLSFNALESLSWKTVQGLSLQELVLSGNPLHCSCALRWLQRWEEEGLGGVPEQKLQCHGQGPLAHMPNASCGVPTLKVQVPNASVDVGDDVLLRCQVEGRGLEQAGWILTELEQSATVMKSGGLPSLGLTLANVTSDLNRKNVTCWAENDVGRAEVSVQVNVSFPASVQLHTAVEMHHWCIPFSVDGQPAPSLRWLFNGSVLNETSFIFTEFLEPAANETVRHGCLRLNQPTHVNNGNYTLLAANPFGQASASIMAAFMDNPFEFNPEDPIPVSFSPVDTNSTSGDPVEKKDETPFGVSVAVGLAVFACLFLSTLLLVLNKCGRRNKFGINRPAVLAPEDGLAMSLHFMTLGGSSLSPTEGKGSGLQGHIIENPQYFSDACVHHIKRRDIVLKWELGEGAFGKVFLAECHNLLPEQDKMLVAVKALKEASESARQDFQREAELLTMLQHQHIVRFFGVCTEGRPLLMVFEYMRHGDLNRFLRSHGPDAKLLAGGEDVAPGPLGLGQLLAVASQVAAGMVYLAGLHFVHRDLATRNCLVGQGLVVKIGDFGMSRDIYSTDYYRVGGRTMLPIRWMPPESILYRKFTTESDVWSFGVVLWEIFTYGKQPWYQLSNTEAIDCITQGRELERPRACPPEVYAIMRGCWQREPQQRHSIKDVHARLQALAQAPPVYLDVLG
experimental-details: In vitro TrkA inhibitory activity using TR-FRET assay
Assay type: biochemical
experimental-conditions: 5 ng TrkA, 500 μM ATP, values given as bins, read-out: TrkA inhibition in-vitro IC50

Please review the following examples before continuing.
Record `O=C(NS(=O)(=O)N(CC1CC1)c1cccnc1)c1cnc2ccc(N3CCC[C@@H]3c3cc(F)ccc3F)cn12` . Reported IC50: 50 to 100 nM

Data point: `CCOCCN(C)S(=O)(=O)NC(=O)c1cnc2ccc(N3CCC[C@@H]3c3cc(F)ccc3OC3CCOCC3)cn12` ; IC50 = ≤ 50 nM

The reported value for `CC(CO)(CO)NC(=O)c1cnc2ccc(N3CCC[C@@H]3c3cc(F)ccc3F)cn12` in terms of IC50 is 100 to 500 nM

Lookup result for `CN(c1nccs1)S(=O)(=O)NC(=O)c1cnc2ccc(N3CCC[C@@H]3c3cc(F)ccc3OC3CCOCC3)cn12` ; measured IC50: ≤ 50 nM

// sample `CN(CC(C)(C)F)S(=O)(=O)NC(=O)c1cnc2ccc(N3C[C@@H](F)C[C@@H]3c3cc(F)ccc3OC3CCOCC3)cn12` , its IC50 was ≤ 50 nM

***
IC50 reported for this molecule `CN(c1nccs1)S(=O)(=O)NC(=O)c1cnc2ccc(N3CCC[C@@H]3c3cc(F)ccc3F)cn12` : ≤ 50 nM

Form field IC50, entry O=C(Nc1ccc(F)cc1)c1cnc2ccc(N3CCCC3c3cc(F)ccc3F)cn12 (stereo not drawn) : ≤ 50 nM

For this molecule ( CCN(C)S(=O)(=O)NC(=O)c1cnc2ccc(N3CCCC3c3cc(F)ccc3O[C@@H]3CCOC3)cn12 (single isomer, unassigned) ), measured IC50 is ≤ 50 nM
